- Measurement notes: Plasma pharmacokinetics of CGA and metabolites after 400 mg green coffee extract, ten volunteers
- Format: in vivo, human
- Measurement parameters: after green coffee extract consumption
Readout kind: contribution to total phenolics in plasma (%)
Form entry: value (%) — number only.

> print(dat)
                chem.smiles  meas.value
1    O=C(O)/C=C/c1ccc(O)cc1         1.4
2  COc1ccc(/C=C/C(=O)O)cc1O         6.1
3  COc1cc(/C=C/C(=O)O)ccc1O         6.2

# input for lookup
IN: Entry "O=C(O)/C=C/c1ccc(O)c(O)c1" has what contribution to total phenolics in plasma?
OUT: 6.6

* * *

- Target entity: hepatic Glc-6-Pase system (Homo sapiens, UniProt O43826)
- Construct: Glc-6-Pase hydrolysis in intact human liver microsomes; tissue BD Biosciences; host or cells: pooled human liver microsomes, intact
- Sequence (O43826 whole entry): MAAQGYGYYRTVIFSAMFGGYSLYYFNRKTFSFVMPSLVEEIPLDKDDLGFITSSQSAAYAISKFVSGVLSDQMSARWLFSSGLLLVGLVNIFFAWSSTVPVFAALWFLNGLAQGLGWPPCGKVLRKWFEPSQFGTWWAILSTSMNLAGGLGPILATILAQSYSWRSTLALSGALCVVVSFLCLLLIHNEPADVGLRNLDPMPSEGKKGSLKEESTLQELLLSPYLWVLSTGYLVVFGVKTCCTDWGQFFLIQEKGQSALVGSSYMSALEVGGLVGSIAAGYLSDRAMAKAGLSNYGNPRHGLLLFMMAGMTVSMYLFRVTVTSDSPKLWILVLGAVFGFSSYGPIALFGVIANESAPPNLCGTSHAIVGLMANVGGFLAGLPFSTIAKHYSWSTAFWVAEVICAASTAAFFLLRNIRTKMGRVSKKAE
- Measurement notes: Glc-6-Pase hydrolysis in intact human liver microsomes (phosphate release)
- Type: biochemical
- Measurement parameters: inhibition of compound divided by inhibition of 0.6 mM total CGAs from the extract
- Experimental: A secondary purpose of Example 8 was to determine the inhibitory effects of a series of structurally-related compounds in the extract, such as caffeoylquinic acids and caffeoylferuloylquinic acids. […] Microsomal intactness was quantified by measuring Man-6-Pase activity. […] Quantification was performed at optimal wavelengths (330 nm) for the CGAs during chromatographic separation. […] Enzymatic activity was expressed as micromoles of phosphate released per minute per milligram of protein. […]
Parameter Contribution to Glc-6-Pase system inhibition by the green coffee extract: see the listing below.
Report the figure in % without appending any unit label.

IN: Quick check: Contribution to Glc-6-Pase system inhibition by the green coffee extract of O=C(C=Cc1ccc(O)c(O)c1)OC1CC(O)(C(=O)O)CC(OC(=O)C=Cc2ccc(O)c(O)c2)C1O (stereo not drawn) [3,5-diCQA, 3,5-dicaffeoylquinic acid] ?
OUT: 0

IN: What value of measured Contribution to Glc-6-Pase system inhibition by the green coffee extract is listed for O=C(C=Cc1ccc(O)c(O)c1)OC1CC(O)(C(=O)O)CC(O)C1OC(=O)C=Cc1ccc(O)c(O)c1 (stereo not drawn) [4,5-diCQA, 4,5-dicaffeoylquinic acid] ?
OUT: 35

IN: Please look up its Contribution to Glc-6-Pase system inhibition by the green coffee extract: O=C(C=Cc1ccc(O)c(O)c1)OC1CC(O)(C(=O)O)CC(O)C1O (stereo not drawn) [3-CQA, 3-caffeoylquinic acid]
OUT: 0

IN: # get_value(readout='Contribution to Glc-6-Pase system inhibition by the green coffee extract', item= O=C(C=Cc1ccc(O)c(O)c1)OC1C(O)CC(O)(C(=O)O)CC1O (stereo not drawn) [4-CQA, 4-caffeoylquinic acid] )
OUT: 40

IN: What value of Contribution to Glc-6-Pase system inhibition by the green coffee extract has been recorded for this entry: O=C(C=Cc1ccc(O)c(O)c1)OC1CC(O)(C(=O)O)CC(O)C1OC(=O)C=Cc1ccc(O)c(O)c1 (stereo not drawn) [3,4-diCQA, 3,4-dicaffeoylquinic acid]
OUT: 19

IN: Look up Contribution to Glc-6-Pase system inhibition by the green coffee extract for this molecule: O=C(C=Cc1ccc(O)c(O)c1)OC1CC(O)(C(=O)O)CC(O)C1O (stereo not drawn) [5-CQA, 5-caffeoylquinic acid]
OUT: 25

Just for reference, patent US10092613B2 is where these values come from.
